Parameter: melting point. Scope: all listed entries.
Record the value in °C, omitting the unit from your answer.

compound: COc1cc(O)c2c(ccc3c(OC)ccc(OC)c32)c1 [Compound 9b, 5-hydroxy-1,4,7-trimethoxy-phenanthrene]
measurement name: melting point
readout unit: °C
numeric value: 71
--
compound: COC1=CC(=O)c2ccc3c(-c4c(OC)c(OC)c(OC)c5c6c(ccc45)C(OC)=CC(=O)C6=O)c(OC)c(OC)c(OC)c3c2C1=O
measurement name: melting point
readout unit: °C
numeric value: 268
--
compound: COc1cc(OC)c2c3c(ccc2c1)C(=O)C=CC3=O
measurement name: melting point
readout unit: °C
numeric value: 121

Query compound follows.
Task item: Item COc1cc(OC)c2c3c(ccc2c1)C(=O)CC(OC)(OC)C3=O : provide melting point
Reply: 179

Reference source for all entries: paper PMC3362575
